Record form. Attribute: Ki. Fill in for each entry.
biological target: WDR5 (Homo sapiens (Human), UniProt P61964); assay: TR-FRET binding assay (displacement of 10mer-Thr-FAM probe from WDR5); conditions: read-out: Ki for Inhibition of WDR5 by TR-FRET assay; TR-FRET, 10mer-Thr-FAM probe, WDR5-His tag 2 nM, pH 7.0
Numbers only, in nM.

List the reported Ki of each compound below.
1. Cc1cc(CNC(=O)c2cc(Cn3ccn(C)c3=N)cc(-c3cccnc3C)c2)ncn1
2. COc1cc(OC)cc(C(NC(=O)c2cc(Cn3ccoc3=N)cc(-c3ccc(F)cc3OC(F)F)c2)C2CC2)c1 (stereo not shown)
3. COc1cc(CNC(=O)c2cc(Cn3ccn(C)c3=N)cc(-c3cccnc3C)c2)ccn1
4. COc1cc(CNC(=O)c2cc(Cn3ccn(C)c3=N)cc(-c3ccc(F)cc3C(F)(F)F)n2)cc(OC)c1
5. Cc1ccnc(C(NC(=O)c2cc(Cn3ccn(C)c3=N)cc(-c3ncc(F)cc3C)c2)C2CC2)c1 (stereo not shown)
6. Cc1cc(=O)[nH]cc1-c1cc(Cn2ccn(C)c2=N)cc(C(=O)NCc2ccc(Cl)c(Cl)c2)c1

output:
1. 3.7
2. 0.16
3. 33
4. 0.71
5. 2.4
6. 20

---

system: MV4:11 human cancer cell lines; experiment: Anti-proliferative activity, CellTiter-Glo viability assay, 7 day protocol; format: cell-based; conditions: Homo sapiens, MV4-11, 168 h, MV4:11 cells, 7 day incubation, read-out: GI50 on cellular proliferation of MV4:11 human cancer cell lines
Values of GI50 strictly less than 500 nM map to rule met, and values of at least 500 nM map to rule not met.

input: Please state whether GI50 is below 500 nM for COc1cc(OC)cc(C(NC(=O)c2cc(Cn3ccn(C)c3=N)cc(-c3ncc(F)cc3C(F)(F)F)c2)C2CC2)c1 (stereo not shown) [Example 74]
output: rule not met

input: Lab note: confirm whether the reported GI50 for this compound is below 500 nM, equality not counting. compound: COc1cc(OC)cc([C@@H](NC(=O)c2cc(Cn3ccoc3=N)cc(-c3ccc(F)cc3Cl)c2)C2CC2)c1 (stereo in doubt) [Example 249]
output: rule met

input: Field: below-cutoff. Rule: recorded GI50 strictly less than 500 nM. Subject: Cn1ccn(Cc2cc(C(=O)NC(CC(=O)O)c3ccc(Cl)c(Cl)c3)nc(-c3ccc(F)cc3C(F)(F)F)c2)c1=N (stereo not shown) [Example 104]
output: rule not met

input: Lab note: confirm whether the reported GI50 for this compound is below 500 nM, equality not counting. compound: Cn1cc(-c2cc(Cn3ccoc3=N)cc(C(=O)N[C@H](c3ccc(Cl)c(Cl)c3)C3CC3)c2)c(C(F)(F)F)n1 [Example 268]
output: rule met

input: Hi there! Is GI50 for CCn1cc(-c2cc(CN3CCOC3=N)cc(C(=O)NCc3ccc(F)c(C)c3)c2)c(C(F)(F)F)n1 [Example 295] below 500 nM, do you know?
output: rule met

---

molecular target: WDR5 (Homo sapiens (Human)); experiment: TR-FRET binding assay (displacement of 10mer-Thr-FAM probe from WDR5); details: read-out: Ki for Inhibition of WDR5 by TR-FRET assay
MEASUREMENT_NAME: pKi
Answers are plain numbers, as −log10 of the molar value.

Cc1cc([C@@H](NC(=O)c2cc(Cn3ccn(C)c3=N)cc(-c3cncnc3C(F)(F)F)c2)C2CC2)ccc1F 9.74
Cc1ccn(Cc2cc(C(=O)N[C@H](c3ccc(F)c(C)c3)C3CC3)cc(-c3cccnc3C(F)(F)F)c2)c(=N)c1 9.32
N=C1SCCN1Cc1cc(C(=O)N[C@H](c2ccc(Cl)c(Cl)c2)C2CC2)cc(-c2ncc(F)cc2C(F)(F)F)c1 9.55
N=C1SCCN1Cc1cc(C(=O)N[C@H](c2ccc(Cl)c(Cl)c2)C2CC2)cc(-c2ccc(F)cc2OC(F)F)c1 9.11

Respectfully, I request pKi for each entry included below.
1. COc1cc(CNC(=O)c2cc(Cn3ccn(C)c3=N)cc(-c3ncc(F)cc3C)c2)cc(OC)c1
2. Cc1cc([C@@H](NC(=O)c2cc(CN3CCSC3=N)cc(-c3ccc(F)cc3C#N)c2)C2CC2)ccc1F
3. Cc1cc([C@@H](NC(=O)c2cc(Cn3ccn(C)c3=N)cc(C3CC3)c2)C2CC2)ccc1F
4. C[C@H](NC(=O)c1cc(Cn2ccoc2=N)cc(-c2cccnc2C(F)(F)F)c1)c1ccc(C(F)(F)F)cc1

output:
8.41
9.04
9.74
8.24

input: pKi for Cc1cc([C@@H](NC(=O)c2cc(CN3C[C@H](C)OC3=N)cc(-c3cccnc3C(F)(F)F)c2)C2CC2)ccc1F ?
output: 8.15
